Recorded IC50 values for a group of compounds are listed next.
- tested.system: GP IIb IIIa (Homo sapiens, UniProt P05106+P08514)
- Sequence (P08514 32-887 limits assumed): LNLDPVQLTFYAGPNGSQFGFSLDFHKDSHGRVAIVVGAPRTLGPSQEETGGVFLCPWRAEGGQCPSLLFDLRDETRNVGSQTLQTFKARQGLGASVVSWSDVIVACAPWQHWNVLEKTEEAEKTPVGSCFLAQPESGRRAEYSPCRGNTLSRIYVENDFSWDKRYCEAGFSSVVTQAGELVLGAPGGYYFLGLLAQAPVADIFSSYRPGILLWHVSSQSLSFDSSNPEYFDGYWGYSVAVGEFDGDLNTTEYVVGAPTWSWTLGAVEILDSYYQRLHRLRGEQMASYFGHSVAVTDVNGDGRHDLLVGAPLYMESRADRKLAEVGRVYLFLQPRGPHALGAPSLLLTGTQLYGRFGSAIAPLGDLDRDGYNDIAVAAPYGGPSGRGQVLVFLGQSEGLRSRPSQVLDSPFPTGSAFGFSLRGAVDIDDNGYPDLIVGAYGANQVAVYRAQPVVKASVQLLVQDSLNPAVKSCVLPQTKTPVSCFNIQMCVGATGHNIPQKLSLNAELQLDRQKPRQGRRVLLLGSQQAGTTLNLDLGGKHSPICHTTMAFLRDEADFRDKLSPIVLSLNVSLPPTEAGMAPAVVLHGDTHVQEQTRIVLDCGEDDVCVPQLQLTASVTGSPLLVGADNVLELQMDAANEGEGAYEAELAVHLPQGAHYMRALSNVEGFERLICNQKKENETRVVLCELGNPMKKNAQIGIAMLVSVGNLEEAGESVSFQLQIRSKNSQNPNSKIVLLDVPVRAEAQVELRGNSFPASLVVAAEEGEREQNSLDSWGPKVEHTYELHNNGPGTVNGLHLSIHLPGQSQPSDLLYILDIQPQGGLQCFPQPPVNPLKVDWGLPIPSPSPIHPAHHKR
- Sequence (P08514 891-1039 partner limits assumed): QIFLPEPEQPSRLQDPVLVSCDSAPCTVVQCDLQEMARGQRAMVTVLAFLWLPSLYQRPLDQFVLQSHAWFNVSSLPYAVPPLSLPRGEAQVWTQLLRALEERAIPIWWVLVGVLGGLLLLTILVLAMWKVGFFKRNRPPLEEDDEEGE
- Sequence (P05106 27-788): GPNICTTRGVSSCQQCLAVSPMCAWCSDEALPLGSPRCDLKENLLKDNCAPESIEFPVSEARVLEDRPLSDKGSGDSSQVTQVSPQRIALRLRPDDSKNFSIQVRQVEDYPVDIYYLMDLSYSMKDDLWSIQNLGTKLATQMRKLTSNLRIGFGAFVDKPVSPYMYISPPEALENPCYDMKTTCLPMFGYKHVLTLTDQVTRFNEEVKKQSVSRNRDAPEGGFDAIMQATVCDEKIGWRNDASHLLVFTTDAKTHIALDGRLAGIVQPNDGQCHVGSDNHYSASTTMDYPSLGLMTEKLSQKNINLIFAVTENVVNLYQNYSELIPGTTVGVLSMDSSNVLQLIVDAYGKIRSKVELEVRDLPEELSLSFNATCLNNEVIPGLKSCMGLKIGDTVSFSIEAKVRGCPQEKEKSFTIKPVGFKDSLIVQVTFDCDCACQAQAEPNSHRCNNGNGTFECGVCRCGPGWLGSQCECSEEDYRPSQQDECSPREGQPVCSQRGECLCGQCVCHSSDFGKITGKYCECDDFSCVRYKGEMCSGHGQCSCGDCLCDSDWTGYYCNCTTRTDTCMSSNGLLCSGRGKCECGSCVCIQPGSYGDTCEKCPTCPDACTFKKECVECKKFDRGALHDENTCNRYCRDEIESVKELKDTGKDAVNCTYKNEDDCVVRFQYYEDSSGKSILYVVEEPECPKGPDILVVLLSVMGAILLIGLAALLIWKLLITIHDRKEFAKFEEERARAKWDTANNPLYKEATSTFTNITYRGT
- method.summary: GP IIb IIIa -von Willebrand factor (vWF) ELISA Assay
- Assay type: binding
- Design: GP IIb IIIa, prepared by the method of Fitzgerald et al; from tissue
- measurement.conditions: GP IIb IIIa-coated plates, vWF; read-out: ELISA IC50 GPIIb IIIa vWF
*1 amine or outer side, *2 acyl side, *3 side chain or, on linkers, in order; H or OH if unused. Where a SMILES comes first, the peptide text is derived from it. Bridges are numbered along the chain shown (N, C = ends). [ ]: non-standard residue; d: D form. The star is where a group is joined. Ethylenediamine = C(CN[*:2])N[*:1]; Aad = N[C@@H](CCCC(=O)O)C(=O)O; NH(CH2)3NH2 = NCCCN*
// units = nM; emit number, no label

N=C(N)NCCC[C@@H]1NC(=O)[C@@H](Cc2ccc(O)cc2)NC(=O)CSC[C@@H](C(=O)NCCCN)NC(=O)[C@H](CC(=O)O)NC(=O)CNC1=O [8/22] ({CH2CO}-[dY]RGDC-{NH(CH2)3NH2}; thioether N-5)    4.73

Give recorded IC50 with GP IIb IIIa (Homo sapiens, UniProt P05106+P08514) for the following compound: N=C(N)NCCC[C@H](NC(=O)[C@@H]1CCCC(=O)N[C@H](Cc2ccc(O)cc2)C(=O)N[C@@H](CCCNC(=N)N)C(=O)NCC(=O)N[C@@H](CC(=O)O)C(=O)N1)C(N)=O [10/19] ([dY]RGD[Aad]R-NH2; lactam N-5) 2.9

Give recorded IC50 with GP IIb IIIa (Homo sapiens, UniProt P05106+P08514) for the following compound: N=C(N)NCCC[C@@H]1NC(=O)[C@@H](Cc2ccc(O)cc2)NC(=O)CSC[C@@H](C(=O)NCCN)NC(=O)[C@H](CC(=O)O)NC(=O)CNC1=O [8/23] ({CH2CO}-[dY]RGDC-Ethylenediamine; thioether N-5) 4.67
